tgt: T1, HLA-A*02:01 class I complex (conditional p*HLA*02:01, biotinylated heavy chain with beta2-microglobulin) (human, biotinylated heavy chain)
T1 construct: UV-labile peptide p* is cleaved and exchanged for the test peptide; also called HLA 2.1
assayProcedure: UV peptide exchange, HLA class I ELISA, % of Pos peptide;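 further: Streptavidin-captured HLA complexes after exchange detected via HRP anti-human B2M antibody, absorbance read, colour scales with intact complex, normalized to exchange control peptide as 100%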
reportedProperty: Exch II (%)

INSERT INTO results (binder, value) VALUES
  ('VMPCEPPEV (also called M232) [TP53_Y220C3 mimic peptide VMPCEPPEV]', '58.9%'),
  ('CYLYYYSYLV (also called M102) [PTEN R173C6 mimic peptide CYLYYYSYLV]', '10.9%'),
  ('LLVVGAVGV (also called M071) [KRAS_G12V2 mimic peptide LLVVGAVGV]', '40.1%'),
  ('YLDCGIHSL (also called M034) [CTNNB1.S33C9 mimic peptide YLDCGIHSL]', '111%'),
  ('CYVYYYSYLL (also called M100) [PTEN.R173C mutant peptide CYVYYYSYLL]', '38.5%'),
  ('KTYPVQLWV (also called M130) [TP53.C141Y mutant peptide KTYPVQLWV]', '71.2%'),
  ('NLDEYVHNL (also called M114) [SF3B1.R625H10 mimic peptide NLDEYVHNL]', '53%'),
  ('VVSDAISAV (also called M120; SOX17.S4031) [SOX17.S403I mutant peptide VVSDAISAV]', '83.8%');
